- Test system: PC3-CXCR4 xenograft tumors
- Test protocol: Biodistribution in mice bearing bilateral PC3-WT/PC3-CXCR4 xenograft tumors
- Type: in vivo, BALB/c mice
- Assay conditions: 1 h p.i.
Experimental endpoint: PC3-CXCR4 Tumor-to-Tissue Ratio Muscle
Give bare numbers.

FCCn1cc(-c2cc(CN3CCCNCCNCCCNCC3)ccc2CNCc2ccccn2)nn1 [RPS-534] : 42.4
FCCn1cc(CNCc2ccc(CN3CCCNCCNCCCNCC3)cc2)nn1 [RPS-547] : 20.3
FCCn1cc(CCNCc2ccc(CN3CCCNCCNCCCNCC3)cc2)nn1 [RPS-552] : 16.7

In the following, a different molecule is considered.
Provide measured PC3-CXCR4 Tumor-to-Tissue Ratio Muscle value, entry: FCCn1cc(-c2cc(CNCc3ccccn3)ccc2CN2CCCNCCNCCCNCC2)nn1 [RPS-533]
2.2
